Answer each item with its documented remaining at 0.5 h, 50 μM.
Assay: in vitro
Details: human, pooled human plasma
Square brackets hold non-standard residues; d marks the D form. Peptide text beside a SMILES is read from it.
Please format your answer as a value with the unit trailing.

// remaining at 0.5 h, 50 μM lookup, compound = CSCC[C@H](NC(=O)[C@H](CCCNC(=N)N)NC(=O)[C@@H](N)CCCNC(=N)N)C(=O)N[C@@H](CCC(=O)O)C(=O)N[C@H](C(=O)N[C@@H](Cc1ccc(O)cc1)C(=O)N[C@@H](CCC(N)=O)C(=O)N[C@@H](CS)C(=O)N[C@@H](CC(C)C)C(=O)N[C@@H](CS)C(=O)NCC(=O)N[C@H](C)C(=O)O)C(C)C [compound 31] (H-RRMEVYQCLCG[dA]-OH; N-terminus and C-terminus assumed) , result: 100%

// remaining at 0.5 h, 50 μM lookup, compound = CSCC[C@H](NC(=O)CNC(=O)[C@H](CCSC)NC(=O)[C@H](CCSC)NC(=O)[C@@H](N)CCCNC(=N)N)C(=O)N[C@H](C(=O)N[C@@H](Cc1ccccc1)C(=O)N[C@@H](CCC(N)=O)C(=O)N[C@@H](CO)C(=O)N[C@@H](CC(C)C)C(=O)O)C(C)C [compound 53] (H-RMMGMVFQSL-OH) , result: 85.8%

// remaining at 0.5 h, 50 μM lookup, compound = CSCC[C@H](NC(=O)CNC(=O)[C@H](CCSC)NC(=O)[C@H](CCSC)NC(=O)[C@@H](N)CCCNC(=N)N)C(=O)N[C@H](C(=O)N[C@@H](Cc1ccccc1)C(=O)N[C@@H](CCC(N)=O)C(=O)O)C(C)C [compound 51] (H-RMMGMVFQ-OH) , result: 100%

The measurements presented in this section are drawn from patent US20230218710A1.
